Each recorded value in this set is attributed to the supplement of paper PMC11061612.

I'd be grateful if you could share measured combination Emax for these entries.
system: HCC1937 (Breast Carcinoma); assay: combination Emax (second highest fraction inhibited in the dose matrix, 72 h); higher = more inhibition; extreme values may be limits of the assay
Write no unit; give the number alone.

## Task Supply measured combination Emax of COc1nnc2ccc(N3CCC(c4ccc(OCCN5CCN(C)C(=O)[C@H]5C)cc4)CC3)nn12 [AZD5153] + C=CCn1c(=O)c2cnc(Nc3ccc(N4CCN(C)CC4)cc3)nc2n1-c1cccc(C(C)(C)O)n1 [AZD1775] (first compound max 1 µM, partner max 1 µM) in your reply.
## Result 0.472

## Task Supply measured combination Emax of CCN(CCO)CCCOc1ccc2c(Nc3cc(CC(=O)Nc4cccc(F)c4)[nH]n3)ncnc2c1 [AZD2811] + C[C@@H]1COCCN1C2=NC(=NC(=C2)C3(CC3)[S@](=N)(=O)C)C4=C5C=CNC5=NC=C4 [AZD6738] (first compound max 1 µM, 7x7, partner max 10 µM) in your reply.
## Result 0.47

## Task Supply measured combination Emax of C=CCn1c(=O)c2cnc(Nc3ccc(N4CCN(C)CC4)cc3)nc2n1-c1cccc(C(C)(C)O)n1 [AZD1775] + C1CN(CCC1(C(=O)N[C@@H](CCO)C2=CC=C(C=C2)Cl)N)C3=NC=NC4=C3C=CN4 [Capivasertib] (first compound max 3 µM, partner max 3 µM) in your reply.
## Result 0.873

## Task Supply measured combination Emax of CC1(C)CCC(CN2CCN(c3ccc(C(=O)NS(=O)(=O)c4ccc(NCC5CCOCC5)c([N+](=O)[O-])c4)c(Oc4cnc5[nH]ccc5c4)c3)CC2)=C(c2ccc(Cl)cc2)C1 [Venetoclax] + C[C@@H](Nc1cc(F)cc(F)c1)c1cc(C(=O)N(C)C)cc2c(=O)cc(N3CCOCC3)oc12 [AZD8186] (first compound max 1 µM, 7x7, partner max 3 µM) in your reply.
## Result 0.271

---

tested on: G-401 (Other Solid Carcinomas); experiment: combination Emax (second highest fraction inhibited in the dose matrix, 72 h); higher = more inhibition; extreme values may be limits of the assay
Response key: satisfied means combination Emax >= 0.6; not satisfied means combination Emax < 0.6.

## Task Form field: combination Emax at least 0.6? Entry: CC1(C)CCC(CN2CCN(c3ccc(C(=O)NS(=O)(=O)c4ccc(NCC5CCOCC5)c([N+](=O)[O-])c4)c(Oc4cnc5[nH]ccc5c4)c3)CC2)=C(c2ccc(Cl)cc2)C1 [Venetoclax] + COc1cc(Nc2ncc3c(n2)-c2ccc(Cl)cc2C(c2c(F)cccc2OC)=NC3)ccc1C(=O)O [Alisertib] (first compound max 1 µM, 7x7, partner max 10 µM)
## Result satisfied

## Task Form field: combination Emax at least 0.6? Entry: C=CCn1c(=O)c2cnc(Nc3ccc(N4CCN(C)CC4)cc3)nc2n1-c1cccc(C(C)(C)O)n1 [AZD1775] + C1CN(CCC1(C(=O)N[C@@H](CCO)C2=CC=C(C=C2)Cl)N)C3=NC=NC4=C3C=CN4 [Capivasertib] (first compound max 3 µM, partner max 3 µM)
## Result satisfied

## Task Form field: combination Emax at least 0.6? Entry: CN(CCO)CC[C@H](CSc1ccccc1)Nc1ccc(S(=O)(=O)NC(=O)c2ccc(N3CCC([C@@H](O)c4ccccc4-c4ccc(Cl)cc4)CC3)cc2)cc1S(=O)(=O)C(F)(F)F [AZD4320] + Cn1cnc2c(F)c(Nc3ccc(Br)cc3Cl)c(C(=O)NOCCO)cc21 [Selumetinib] (first compound max 1 µM, 7x7, partner max 3 µM)
## Result not satisfied

## Task Form field: combination Emax at least 0.6? Entry: CN(CCO)CC[C@H](CSc1ccccc1)Nc1ccc(S(=O)(=O)NC(=O)c2ccc(N3CCC([C@@H](O)c4ccccc4-c4ccc(Cl)cc4)CC3)cc2)cc1S(=O)(=O)C(F)(F)F [AZD4320] + Cc1cc2ncnn2cc1Nc1ncc2c(n1)n(C1CCOCC1)c(=O)n2C [AZD7648] (first compound max 1 µM, 7x7, partner max 10 µM)
## Result not satisfied

## Task Form field: combination Emax at least 0.6? Entry: COc1cccc2c1C(=O)c1c(O)c3c(c(O)c1C2=O)C[C@@](O)(C(=O)CO)C[C@@H]3O[C@H]1C[C@H](N)[C@H](O)[C@H](C)O1 [Doxorubicin] + Cc1cc2ncnn2cc1Nc1ncc2c(n1)n(C1CCOCC1)c(=O)n2C [AZD7648] (first compound max 1 µM, 7x7, partner max 10 µM)
## Result satisfied

## Task Form field: combination Emax at least 0.6? Entry: COc1nnc2ccc(N3CCC(c4ccc(OCCN5CCN(C)C(=O)[C@H]5C)cc4)CC3)nn12 [AZD5153] + Cn1cnc2c(F)c(Nc3ccc(Br)cc3Cl)c(C(=O)NOCCO)cc21 [Selumetinib] (first compound max 1 µM, 7x7, partner max 10 µM)
## Result satisfied

---

system: NCI-H1092 (Small Cell Lung Carcinoma); experiment: combination Emax (second highest fraction inhibited in the dose matrix, 72 h); higher = more inhibition; extreme values may be limits of the assay
value_type: combination Emax
Write no unit; give the number alone.

## Task Supply measured combination Emax of C=CCn1c(=O)c2cnc(Nc3ccc(N4CCN(C)CC4)cc3)nc2n1-c1cccc(C(C)(C)O)n1 [AZD1775] + C[C@@H]1COCCN1C2=NC(=NC(=C2)C3(CC3)[S@](=N)(=O)C)C4=C5C=CNC5=NC=C4 [AZD6738] (first compound max 1 µM, partner max 10 µM) in your reply.
## Result 0.397

## Task Supply measured combination Emax of CC1(C)CCC(CN2CCN(c3ccc(C(=O)NS(=O)(=O)c4ccc(NCC5CCOCC5)c([N+](=O)[O-])c4)c(Oc4cnc5[nH]ccc5c4)c3)CC2)=C(c2ccc(Cl)cc2)C1 [Venetoclax] + C=CCn1c(=O)c2cnc(Nc3ccc(N4CCN(C)CC4)cc3)nc2n1-c1cccc(C(C)(C)O)n1 [AZD1775] (first compound max 1 µM, partner max 1 µM) in your reply.
## Result 0.696

## Task Supply measured combination Emax of Cc1cc2ncnn2cc1Nc1ncc2c(n1)n(C1CCOCC1)c(=O)n2C [AZD7648] + O=C(c1cc(Cc2n[nH]c(=O)c3ccccc23)ccc1F)N1CCN(C(=O)C2CC2)CC1 [Olaparib] (first compound max 10 µM, 7x7, partner max 10 µM) in your reply.
## Result 0.111

## Task Supply measured combination Emax of Cc1c2c(nn1C)CSCc1cc(n(C)n1)CSc1cc(c3ccccc3c1)OCCCc1c(C(=O)O)n(C)c3c-2c(Cl)ccc13 [AZD5991] + CN(C)CCCOc1ccc(-c2ccc3ncc4c(c3c2)n(C2CCOCC2)c(=O)n4C)cn1 [AZD0156] (first compound max 1 µM, 7x7, partner max 1 µM) in your reply.
## Result 0.562

---

I'd be grateful if you could share measured combination Emax for these entries.
system: KMRC-1 (Kidney Carcinoma); assay: combination Emax (second highest fraction inhibited in the dose matrix, 72 h); higher = more inhibition; extreme values may be limits of the assay
Write no unit; give the number alone.

## Task // fetch combination Emax; item: CN(CCO)CC[C@H](CSc1ccccc1)Nc1ccc(S(=O)(=O)NC(=O)c2ccc(N3CCC([C@@H](O)c4ccccc4-c4ccc(Cl)cc4)CC3)cc2)cc1S(=O)(=O)C(F)(F)F [AZD4320] + C[C@@H](Nc1cc(F)cc(F)c1)c1cc(C(=O)N(C)C)cc2c(=O)cc(N3CCOCC3)oc12 [AZD8186] (first compound max 1 µM, 7x7, partner max 3 µM) ; system: KMRC-1 (Kidney Carcinoma)
## Result 0.771

## Task // fetch combination Emax; item: CN(CCO)CC[C@H](CSc1ccccc1)Nc1ccc(S(=O)(=O)NC(=O)c2ccc(N3CCC([C@@H](O)c4ccccc4-c4ccc(Cl)cc4)CC3)cc2)cc1S(=O)(=O)C(F)(F)F [AZD4320] + Nc1ccn([C@@H]2O[C@H](CO)[C@@H](O)C2(F)F)c(=O)n1 [Gemcitabine] (first compound max 1 µM, 7x7, partner max 0.3 µM) ; system: KMRC-1 (Kidney Carcinoma)
## Result 0.902

## Task // fetch combination Emax; item: COc1cccc(OCCCN)c1-c1cc(Nc2cnc(C#N)cn2)n[nH]1 [Prexasertib] + C=CCn1c(=O)c2cnc(Nc3ccc(N4CCN(C)CC4)cc3)nc2n1-c1cccc(C(C)(C)O)n1 [AZD1775] (first compound max 1 µM, partner max 1 µM) ; system: KMRC-1 (Kidney Carcinoma)
## Result 0.627

---

test system: Mo-T (Other Blood Carcinomas); assay: combination Emax (second highest fraction inhibited in the dose matrix, 72 h); higher = more inhibition; extreme values may be limits of the assay
I'd be grateful if you could share measured combination Emax for these entries.
Write no unit; give the number alone.

## Task Supply measured combination Emax of C[C@@H]1COCCN1c1cc(C2([S@](C)(=N)=O)CC2)nc(-c2ccnc3[nH]ccc23)n1 [AZD6738] + C1CC(C1)(C(=O)[O-])C(=O)[O-].N.N.[Pt+2] [Carboplatin] (first compound max 10 µM, 7x7, partner max 10 µM) in your reply.
## Result 0.366

## Task Supply measured combination Emax of Cn1cnc2c(F)c(Nc3ccc(Br)cc3Cl)c(C(=O)NOCCO)cc21 [Selumetinib] + CCN(CCO)CCCOc1ccc2c(Nc3cc(CC(=O)Nc4cccc(F)c4)[nH]n3)ncnc2c1 [AZD2811] (first compound max 10 µM, 7x7, partner max 1 µM) in your reply.
## Result 0.238

## Task Supply measured combination Emax of C[C@@H]1COCCN1c1cc(C2([S@](C)(=N)=O)CC2)nc(-c2ccnc3[nH]ccc23)n1 [AZD6738] + Nc1ccn([C@@H]2O[C@H](CO)[C@@H](O)C2(F)F)c(=O)n1 [Gemcitabine] (first compound max 10 µM, 7x7, partner max 0.3 µM) in your reply.
## Result 0.812

## Task Supply measured combination Emax of N#Cc1cnc(Nc2cc(NC[C@H]3CNCCO3)c(C(F)(F)F)cn2)cn1 [SRA737] + Nc1ccn([C@@H]2O[C@H](CO)[C@@H](O)C2(F)F)c(=O)n1 [Gemcitabine] (first compound max 10 µM, 7x7, partner max 0.3 µM) in your reply.
## Result 0.737
